Listing of recorded IC50 by entry.
Assay Target: Cathepsin D (Cat D) (Homo sapiens, UniProt P07339)
Construct: Recombinant Cat D was expressed in CHO cells; made in house; host or cells: CHO cells
Sequence (P07339 65-412, species assumed): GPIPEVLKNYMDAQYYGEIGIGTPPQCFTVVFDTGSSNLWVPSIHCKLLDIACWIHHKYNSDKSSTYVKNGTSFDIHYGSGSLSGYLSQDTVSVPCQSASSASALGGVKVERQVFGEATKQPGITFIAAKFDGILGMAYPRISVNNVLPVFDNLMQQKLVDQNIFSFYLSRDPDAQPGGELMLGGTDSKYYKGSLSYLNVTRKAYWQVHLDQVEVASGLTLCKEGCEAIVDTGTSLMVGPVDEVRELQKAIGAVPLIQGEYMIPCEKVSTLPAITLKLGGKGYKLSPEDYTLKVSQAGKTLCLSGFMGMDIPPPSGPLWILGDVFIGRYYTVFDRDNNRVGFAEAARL
Test Summary: In vitro enzymatic Cathepsin D (Cat D) FRET assay
Type: biochemical
Condition Parameters: read-out: CatD IC50

Molecule | Operator | IC50 [µM]
CCc1c(C(=O)Nc2ccc(F)c([C@]3(CF)CS(=O)(=O)C(C)(C)C(N)=N3)c2)nc2ccc(Cl)cn12 [Example 394] | > | 14.8
COc1cnc(C(=O)Nc2ccc(F)c([C@]3(CF)CS(=O)(=O)C4(CCC4)C(N)=N3)c2)c(C)c1 [Example 373] | = | 197
NC1=N[C@@](CF)(c2cc(Br)ccc2F)CS(=O)(=O)C12CCC2 [Example 418] | > | 400
COc1cnc(C(=O)Nc2ccc(F)c([C@]34COC[C@H]3S(=O)(=O)C(C)(C)C(N)=N4)c2)c(C)c1 [Example 430] | = | 144
C[C@]1(F)C(N)=N[C@](C)(c2cc(NC(=O)c3ncc(C#N)cc3Cl)ccc2F)CS1(=O)=O [Example 327] | > | 400
CCc1cccc(Oc2ccc(F)c([C@]3(C)CS(=O)(=O)C(C)(C)C(N)=N3)c2)c1 [Example 99] | = | 86.8

###

Test system: Aβ40 in conditioned medium of cells stably expressing Amyloid Precursor Protein (APP)
Test Summary: In vitro BACE cell-based assay (HEK cell assay), Aβ40 sandwich ELISA
Condition Parameters: Homo sapiens, HEK293; average IC50, HEK cells
pIC50: −log10 of the molar value.

Compound | pIC50
CC1(C)C(N)=N[C@@]2(c3cc(N)ccc3F)COC[C@H]2S1(=O)=O [Example 185c] | < 4.81
C[C@@]1(c2cc(Br)ccc2F)CS(=O)(=O)C2(CCOC2)C(N)=N1 (mixture of isomers) | < 4.81
CC1(C)C(N)=N[C@](CF)(c2cc(N)ccc2F)CS1(=O)=O | < 4.81

###

Assay Target: Beta Secretase enzyme (BACE1) (Homo sapiens, UniProt P56817)
Sequence (P56817 46-501): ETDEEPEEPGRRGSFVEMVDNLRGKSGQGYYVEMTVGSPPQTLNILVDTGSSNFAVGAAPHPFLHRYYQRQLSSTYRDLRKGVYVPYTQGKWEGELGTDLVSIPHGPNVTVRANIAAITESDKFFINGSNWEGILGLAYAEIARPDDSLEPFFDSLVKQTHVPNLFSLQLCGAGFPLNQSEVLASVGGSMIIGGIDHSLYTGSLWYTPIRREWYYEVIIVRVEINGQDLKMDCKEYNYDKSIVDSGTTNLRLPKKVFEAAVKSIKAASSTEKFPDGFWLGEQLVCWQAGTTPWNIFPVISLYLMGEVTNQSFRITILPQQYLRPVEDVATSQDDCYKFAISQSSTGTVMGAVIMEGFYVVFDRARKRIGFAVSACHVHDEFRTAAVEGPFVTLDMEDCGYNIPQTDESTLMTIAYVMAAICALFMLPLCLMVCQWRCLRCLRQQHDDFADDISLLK
Test Summary: In vitro enzymatic BACE FRET assay
Assay type: biochemical
Condition Parameters: read-out: BACE1 FRET assay IC50

Structure Notation | IC50
CC1(C)C(N)=N[C@](C)(c2cc(NC(=O)c3ccc(Cl)cn3)cc(F)c2F)CS1(=O)=O | 1 nM
C=Cc1cc(Cl)cnc1C(=O)Nc1ccc(F)c([C@]2(CF)CS(=O)(=O)C(C)(C)C(N)=N2)c1 | 0.86 nM
CC1(C)C(N)=N[C@](C)(c2cc(NC(=O)c3ccc(Cl)cn3)cnc2F)CS1(=O)=O | 2 nM
CC1(C)C(N)=N[C@](CF)(c2cc(NC(=O)c3cn4cc(Cl)ccc4n3)ccc2F)CS1(=O)=O | 9.69 nM
Cc1cc(OC(F)F)cnc1C(=O)Nc1cnc(F)c([C@]2(C)CS(=O)(=O)C(C)(C)C(N)=N2)c1 | 1.4 nM
CC1(C)C(N)=N[C@](C)(c2cc(Nc3nccc4nc(O)cnc34)cc(F)c2F)CS1(=O)=O | 3.7 nM
CC1(C)C(N)=N[C@](CF)(c2cc(Nc3nccc4cc(C#N)cnc34)ccc2F)CS1(=O)=O | 0.44 nM
COc1cnc(C(=O)Nc2ccc(F)c([C@]3(CF)CS(=O)(=O)C(C)(C)C(N)=N3)c2)c(C)c1 | 3 nM
COc1cnc2c(Nc3ccc(F)c([C@@]4(C(F)(F)F)CS(=O)(=O)C(C)(C)C(N)=N4)c3)nccc2c1 | 8690 nM
CC1(C)C(N)=N[C@](C)(c2cc(Nc3nccc4nc(C(F)(F)F)cnc34)ccc2F)CS1(=O)=O | 5.2 nM
Cc1cnc(C(=O)Nc2ccc(F)c([C@]3(C)CS(=O)(=O)C(C)(C)C(N)=N3)c2)cn1 | 20.2 nM

Reference for the values: patent US20140107109A1
